- targetSystem: T1, LexA (DinR) wild type (Bacillus subtilis, UniProt P31080 1-205)
- T1 sequence: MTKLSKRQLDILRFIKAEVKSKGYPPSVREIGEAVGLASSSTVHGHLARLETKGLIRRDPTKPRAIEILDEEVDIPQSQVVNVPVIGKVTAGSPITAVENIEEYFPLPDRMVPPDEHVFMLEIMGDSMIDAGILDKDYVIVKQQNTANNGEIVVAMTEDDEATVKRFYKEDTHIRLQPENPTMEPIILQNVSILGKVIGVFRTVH
- procedureDetails: competition EMSA
metric: Ki (nM)
Number only, in nM; omit the unit.

Asked: Could you share which Ki value was measured for recA op T7A (dsDNA) DNA 1: GGGGGGCGAATAAGCGTTCGCCCCCC DNA 2: GGGGGGCGAACGCTTATTCGCCCCCC ?
Given back: 17.1
